System: 362531-283-R-J2-PDC complex spheroid viability
Experimental Details: Anticancer human tumor 362531-283-R-J2-PDC patient-derived colon adenocarcinoma cell line growth inhibition [RAS]
Run Parameters: second compound 0.003 µM; first compound 0.1 µM; stronger effect = lower value
Measure Name: viability, T/C (%)
Give the quantity in %, number only.

CC1(O)CCCC1n1c(=O)c(C(F)F)cc2cnc(NC3CCN(S(C)(=O)=O)CC3)nc21 (stereo not drawn) + CCn1c(-c2cc(N3CCN(C)CC3)cnc2C(C)OC)c2c3cc(ccc31)-c1csc(n1)CC(NC(=O)C1CC1C)C(=O)N1CCCC(N1)C(=O)OCC(C)(C)C2 :: 112
C[C@@H](NC(=O)c1ncnc(N)c1Cl)c1ncc(C(=O)Nc2cc(C(F)(F)F)c(Cl)cn2)s1 + CCn1c(-c2cccnc2C(C)OC)c2c3cc(ccc31)N1CCOC(CC(NC(=O)C(C(C)C)N(C)C(=O)C3(F)CCN(C(=O)C#CC(C)(C)N(C)C)CC3)C(=O)N3CCCC(N3)C(=O)OCC(C)(C)C2)C1 :: 94
CC(C)NCC(C(=O)N1CCN(c2ncnc3c2C(C)CC3O)CC1)c1ccc(Cl)cc1 (stereo not drawn) + CCn1c(-c2cc(N3CCN(C)CC3)cnc2C(C)OC)c2c3cc(ccc31)-c1csc(n1)CC(NC(=O)C1CC1C)C(=O)N1CCCC(N1)C(=O)OCC(C)(C)C2 :: 109
O=C(c1ccc(F)c(F)c1Nc1ccc(I)cc1F)N1CC(O)([C@@H]2CCCCN2)C1 + CCn1c(-c2cc(N3CCN(C)CC3)cnc2C(C)OC)c2c3cc(ccc31)-c1csc(n1)CC(NC(=O)C1CC1C)C(=O)N1CCCC(N1)C(=O)OCC(C)(C)C2 :: 76.4
Nc1ccn(C2OC(CO)C(O)C2(F)F)c(=O)n1 (stereo not drawn) + CCn1c(-c2cc(N3CCN(C)CC3)cnc2C(C)OC)c2c3cc(ccc31)-c1csc(n1)CC(NC(=O)C1CC1C)C(=O)N1CCCC(N1)C(=O)OCC(C)(C)C2 :: 75.7
CC(C)NCC(C(=O)N1CCN(c2ncnc3c2C(C)CC3O)CC1)c1ccc(Cl)cc1 (stereo not drawn) + CCn1c(-c2cccnc2C(C)OC)c2c3cc(ccc31)N1CCOC(CC(NC(=O)C(C(C)C)N(C)C(=O)C3(F)CCN(C(=O)C#CC(C)(C)N(C)C)CC3)C(=O)N3CCCC(N3)C(=O)OCC(C)(C)C2)C1 :: 105
O=C(c1ccc(F)c(F)c1Nc1ccc(I)cc1F)N1CC(O)([C@@H]2CCCCN2)C1 + CCn1c(-c2cccnc2C(C)OC)c2c3cc(ccc31)N1CCOC(CC(NC(=O)C(C(C)C)N(C)C(=O)C3(F)CCN(C(=O)C#CC(C)(C)N(C)C)CC3)C(=O)N3CCCC(N3)C(=O)OCC(C)(C)C2)C1 :: 83.2

Kindly review the next compound as well.
viability, T/C lookup needed for CCC(CC)c1cc(NC2CCC(N)C2)n2nccc2n1 (stereo not drawn) + CCn1c(-c2cc(N3CCN(C)CC3)cnc2C(C)OC)c2c3cc(ccc31)-c1csc(n1)CC(NC(=O)C1CC1C)C(=O)N1CCCC(N1)C(=O)OCC(C)(C)C2 , thanks.
108

* * *

System: 362531-283-R-J2-PDC complex spheroid viability
Experimental Details: Anticancer human tumor 362531-283-R-J2-PDC cell line growth inhibition [RAS];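 further: spheroids exposed to the agents for 7 days before readout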;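 on viability, T/C: luminescence viability as percent of DMSO vehicle control wells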
Run Parameters: second compound 0.00316 µM; first compound 1 µM; stronger effect = lower value
Measure Name: viability, T/C (%)
Give the quantity in %, number only.

Guide cases for viability, T/C, answers given:
O=C(c1ccc(F)c(F)c1Nc1ccc(I)cc1F)N1CC(O)([C@@H]2CCCCN2)C1 + C=CC(=O)N1CCN(c2nc(OCC3CCCN3C)nc3c(F)c(-c4nc(N)cc(C)c4C(F)(F)F)c(Cl)cc23)C(C)C1 :: 4.22
C=CC(=O)Nc1cc(Nc2nccc(-c3cn(C)c4ccccc34)n2)c(OC)cc1N(C)CCN(C)C + C=CC(=O)N1CCN(c2nc(OCC3CCCN3C)nc3c(F)c(-c4nc(N)cc(C)c4C(F)(F)F)c(Cl)cc23)C(C)C1 :: 69.8

viability, T/C lookup needed for CC(=O)OC12COC1CC(O)C1(C)C(=O)C(O)C3=C(C)C(OC(=O)C(O)C(NC(=O)OC(C)(C)C)c4ccccc4)CC(O)(C(OC(=O)c4ccccc4)C21)C3(C)C (centres undefined) + C=CC(=O)N1CCN(c2nc(OCC3CCCN3C)nc3c(F)c(-c4nc(N)cc(C)c4C(F)(F)F)c(Cl)cc23)C(C)C1 , thanks.
20.6

Let us now turn to NC1c2ccccc2OC12CCN(c1cnc3c(N4CCCc5ncccc54)n[nH]c3n1)CC2 (centres undefined) + C=CC(=O)N1CCN(c2nc(OCC3CCCN3C)nc3c(F)c(-c4nc(N)cc(C)c4C(F)(F)F)c(Cl)cc23)C(C)C1
60

Let us now turn to CC1(O)CCCC1n1c(=O)c(C(F)F)cc2cnc(NC3CCN(S(C)(=O)=O)CC3)nc21 (centres undefined) + C=CC(=O)N1CCN(c2nc(OCC3CCCN3C)nc3c(F)c(-c4nc(N)cc(C)c4C(F)(F)F)c(Cl)cc23)C(C)C1
68.3

Let us now turn to CCN1CCN(Cc2ccc(Nc3ncc(F)c(-c4cc(F)c5nc(C)n(C(C)C)c5c4)n3)nc2)CC1 + C=CC(=O)N1CCN(c2nc(OCC3CCCN3C)nc3c(F)c(-c4nc(N)cc(C)c4C(F)(F)F)c(Cl)cc23)C(C)C1
80.2

Let us now turn to Cc1nc(N2CCC3(CC2)COC(C)C3N)c(CO)nc1Sc1ccnc(N)c1Cl (centres undefined) + C=CC(=O)N1CCN(c2nc(OCC3CCCN3C)nc3c(F)c(-c4nc(N)cc(C)c4C(F)(F)F)c(Cl)cc23)C(C)C1
94.3

Let us now turn to CC(Nc1ccc2c(c1)OCCn1cc(N3C(=O)OCC3C(F)F)nc1-2)C(N)=O (centres undefined) + C=CC(=O)N1CCN(c2nc(OCC3CCCN3C)nc3c(F)c(-c4nc(N)cc(C)c4C(F)(F)F)c(Cl)cc23)C(C)C1
46.1

Let us now turn to Nc1ccn(C2OC(CO)C(O)C2(F)F)c(=O)n1 (centres undefined) + C=CC(=O)N1CCN(c2nc(OCC3CCCN3C)nc3c(F)c(-c4nc(N)cc(C)c4C(F)(F)F)c(Cl)cc23)C(C)C1
29.7

* * *

Tested on: 362531-283-R-J2-PDC complex spheroid viability
Experimental Details: Anticancer human tumor 362531-283-R-J2-PDC cell line growth inhibition [RAS];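 further: spheroids exposed to the agents for 7 days before readout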
Run Parameters: curve of first compound; second compound 0.0316 µM
Measure Name: IC50 (µM)
Give the quantity in µM, number only.

NC1c2ccccc2OC12CCN(c1cnc3c(N4CCCc5ncccc54)n[nH]c3n1)CC2 (stereo not given) + C=CC(=O)N1CCN(c2nc(OCC3CCCN3C)nc3c(F)c(-c4nc(N)cc(C)c4C(F)(F)F)c(Cl)cc23)C(C)C1 :: 4.67
CCC(CC)c1cc(NC2CCC(N)C2)n2nccc2n1 (stereo not given) + C=CC(=O)N1CCN(c2nc(OCC3CCCN3C)nc3c(F)c(-c4nc(N)cc(C)c4C(F)(F)F)c(Cl)cc23)C(C)C1 :: 5.54

Kindly review the next compound as well.
IC50 lookup needed for CC(Nc1ccc2c(c1)OCCn1cc(N3C(=O)OCC3C(F)F)nc1-2)C(N)=O (stereo not given) + C#Cc1c(F)ccc2cc(O)cc(-c3ncc4c(N5CC6CCC(C5)N6)nc(OCC56CCCN5CC(F)C6)nc4c3F)c12 , thanks.
1.29

* * *

Tested on: 362531-283-R-J2-PDC complex spheroid viability
Experimental Details: Anticancer human tumor 362531-283-R-J2-PDC cell line growth inhibition [RAS];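 further: spheroids exposed to the agents for 7 days before readout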;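 on viability, T/C: luminescence viability as percent of DMSO vehicle control wells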
Run Parameters: compound 0.3 µM; stronger effect = lower value
viability, T/C by entry:

CCn1c(-c2cccnc2C(C)OC)c2c3cc(ccc31)N1CCOC(CC(NC(=O)C(C(C)C)N(C)C(=O)C3(F)CCN(C(=O)C#CC(C)(C)N(C)C)CC3)C(=O)N3CCCC(N3)C(=O)OCC(C)(C)C2)C1 (centres undefined) :: 100% [middle of 8 runs]
CCn1c(-c2cc(N3CCN(C)CC3)cnc2C(C)OC)c2c3cc(ccc31)-c1csc(n1)CC(NC(=O)C1CC1C)C(=O)N1CCCC(N1)C(=O)OCC(C)(C)C2 (centres undefined) :: 38.5% [middle of 8 runs]
CC1(C)CCC(Nc2ncc(C(F)(F)F)c(-c3c[nH]c4c(P(C)(C)=O)c(C#N)ccc34)n2)CN1 (centres undefined) :: 108% [middle of 4 runs]

Kindly review the next compound as well.
viability, T/C lookup needed for "CCc1c2c(nc3ccc(O)cc13)-c1cc3c(c(=O)n1C2)COC(=O)[C@]3(O)CC" , thanks.
19.9% [middle of 4 runs]
